# ASSAY_NAME: Solid-state chemical stability of 25HC3S salts at 2-8° C., 60° C. and 80° C. (HPLC assay and degradation products)
# Type: physicochemical
# APPLIED_CONDITIONS: solid state, 2-8° C., 5 wk; read-out: Assay
Structures can show the parent of a compound that is named as a salt.
MEASUREMENT_LABEL: remaining at 840 h (%)
Numbers only, in %.

Lookup: Give reported remaining at 840 h value for C[C@H](CCCC(C)(C)O)[C@H]1CC[C@H]2[C@@H]3CC=C4C[C@@H](OS(=O)(=O)O)CC[C@]4(C)[C@H]3CC[C@]12C [Salt #14]
Found: 94.2

----------
# ASSAY_NAME: Solubility of 25HC3S salts after one day at room temperature (HPLC, as free acid)
# Type: physicochemical
# APPLIED_CONDITIONS: FaSSGF, room temperature, one day
Structures can show the parent of a compound that is named as a salt.
MEASUREMENT_LABEL: Solubility in FaSSGF (in words)

                                   compound                measurement_label  recorded_result
0  CC(CCCC(C)(C)O)C1CCC2C3CC=C4CC(OS(=O)(=O)O)CCC4(C)C3CCC12C (stereo not drawn) [Salt #10]  Solubility in FaSSGF (in words)  high solubility
1  CC(CCCC(C)(C)O)C1CCC2C3CC=C4CC(OS(=O)(=O)O)CCC4(C)C3CCC12C (stereo not drawn) [Salt #8]  Solubility in FaSSGF (in words)  high solubility
2  CC(CCCC(C)(C)O)C1CCC2C3CC=C4CC(OS(=O)(=O)O)CCC4(C)C3CCC12C (stereo not drawn) [Salt #6]  Solubility in FaSSGF (in words)  high solubility
3  CC(CCCC(C)(C)O)C1CCC2C3CC=C4CC(OS(=O)(=O)O)CCC4(C)C3CCC12C (stereo not drawn) [Salt #12]  Solubility in FaSSGF (in words)  high solubility

// below: Solubility in FaSSGF (in words) requested for another compound
Lookup: Give reported Solubility in FaSSGF (in words) value for CC(CCCC(C)(C)O)C1CCC2C3CC=C4CC(OS(=O)(=O)O)CCC4(C)C3CCC12C (stereo not drawn) [Salt #7]
Found: high solubility

----------
# ASSAY_NAME: Final pH of the solubility sample solutions in aqueous media
# Type: physicochemical
# APPLIED_CONDITIONS: FeSSIF (blank 4.9, 5.0)
Where a name gives a salt, the structure may show the parent alone.
Task for the reader: assign each of the following molecules its reported pH of the solubility sample, FeSSIF.

                                   molecule                    measurement_label  recorded_result
0  CC(CCCC(C)(C)O)C1CCC2C3CC=C4CC(OS(=O)(=O)O)CCC4(C)C3CCC12C (stereo not drawn) [Salt #3]  pH of the solubility sample, FeSSIF              5.0
1  CC(CCCC(C)(C)O)C1CCC2C3CC=C4CC(OS(=O)(=O)O)CCC4(C)C3CCC12C (stereo not drawn) [Salt #5]  pH of the solubility sample, FeSSIF              5.0
2  CC(CCCC(C)(C)O)C1CCC2C3CC=C4CC(OS(=O)(=O)O)CCC4(C)C3CCC12C (stereo not drawn) [Salt #12]  pH of the solubility sample, FeSSIF              5.0

Would you be so kind as to report pH of the solubility sample, FeSSIF for each listed record?
1. CC(CCCC(C)(C)O)C1CCC2C3CC=C4CC(OS(=O)(=O)O)CCC4(C)C3CCC12C (stereo not drawn) [Salt #7]
2. CC(CCCC(C)(C)O)C1CCC2C3CC=C4CC(OS(=O)(=O)O)CCC4(C)C3CCC12C (stereo not drawn) [Salt #2]
3. CC(CCCC(C)(C)O)C1CCC2C3CC=C4CC(OS(=O)(=O)O)CCC4(C)C3CCC12C (stereo not drawn) [Salt #9]
4. CC(CCCC(C)(C)O)C1CCC2C3CC=C4CC(OS(=O)(=O)O)CCC4(C)C3CCC12C (stereo not drawn) [Salt #4]

Found:
[5.0, 5.0, 5.0, 5.0]

Would you be so kind as to report pH of the solubility sample, FeSSIF for each listed record?
1. C[C@H](CCCC(C)(C)O)[C@H]1CC[C@H]2[C@@H]3CC=C4C[C@@H](OS(=O)(=O)O)CC[C@]4(C)[C@H]3CC[C@]12C [Salt #14]
2. CC(CCCC(C)(C)O)C1CCC2C3CC=C4CC(OS(=O)(=O)O)CCC4(C)C3CCC12C (stereo not drawn) [Salt #1]

Found:
1. 5.0
2. 5.0
